ASSAY_SUMMARY: Cmax in female human at 150 mg, po
CONDITIONS_USED: in vivo
MEASUREMENT_KIND: Cmax (ng/mL)
Express it in ng/mL; write the number only.

According to the records, this molecule `c1ccc([C@H]2CN3CCSC3=N2)cc1` displays Cmax of 820

* * *

ASSAY_SUMMARY: Elimination half life in male human at 150 mg, po
CONDITIONS_USED: in vivo
MEASUREMENT_KIND: half-life (h)
Express it in h; write the number only.

According to the records, this molecule c1ccc([C@H]2CN3CCSC3=N2)cc1 [LEVAMISOLE] displays half-life of 5.4

* * *

ASSAY_SUMMARY: Tmax in human at 150 mg, po
CONDITIONS_USED: in vivo
MEASUREMENT_KIND: Tmax (h)
Express it in h; write the number only.

According to the records, this molecule c1ccc([C@H]2CN3CCSC3=N2)cc1 [LEVAMISOLE] displays Tmax of 1.5

* * *

ASSAY_SUMMARY: Tmax in male human at 150 mg, po
CONDITIONS_USED: in vivo
MEASUREMENT_KIND: Tmax
Returns: string containing the number followed by the unit.

According to the records, this compound `c1ccc([C@H]2CN3CCSC3=N2)cc1` displays Tmax of 1.7 h

* * *

ASSAY_SUMMARY: AUC in female human at 150 mg, po
CONDITIONS_USED: plasma
MEASUREMENT_KIND: AUC (ng·h/mL)
Express it in ng·h/mL; write the number only.

According to the records, this compound `c1ccc([C@H]2CN3CCSC3=N2)cc1` displays AUC of 3070

* * *

ASSAY_SUMMARY: in vivo
CONDITIONS_USED: dog, po, 10 mg/kg
Description: Tmax in fed dog at 10 mg/kg, po
MEASUREMENT_KIND: Tmax (h)
Express it in h; write the number only.

According to the records, this molecule `c1ccc([C@H]2CN3CCSC3=N2)cc1` displays Tmax of 4.5

* * *

ASSAY_SUMMARY: in vivo
CONDITIONS_USED: dog, po, 10 mg/kg
Description: Oral bioavailability in fed dog at 10 mg/kg
MEASUREMENT_KIND: bioavailability (%)
Express it in %; write the number only.

According to the records, this compound c1ccc([C@H]2CN3CCSC3=N2)cc1 [LEVAMISOLE] displays bioavailability of 44

* * *

ASSAY_SUMMARY: in vivo
CONDITIONS_USED: dog, plasma, po, 10 mg/kg
Description: AUC in fasted dog at 10 mg/kg, po
MEASUREMENT_KIND: AUC

According to the records, this molecule c1ccc([C@H]2CN3CCSC3=N2)cc1 [LEVAMISOLE] displays AUC of 12200 ng·h/mL

* * *

ASSAY_SUMMARY: Plasma clearance in male human at 150 mg, po
MEASUREMENT_KIND: CL/F (mL/min/kg)
Express it in mL/min/kg; write the number only.

According to the records, this molecule `c1ccc([C@H]2CN3CCSC3=N2)cc1` displays CL/F of 8.25

* * *

ASSAY_SUMMARY: in vivo
CONDITIONS_USED: dog, plasma, iv, 10 mg/kg
Description: Plasma clearance in dog at 10 mg/kg, iv
MEASUREMENT_KIND: clearance (mL/min/kg)
Express it in mL/min/kg; write the number only.

According to the records, this compound `c1ccc([C@H]2CN3CCSC3=N2)cc1` displays clearance of 8.92

* * *

ASSAY_SUMMARY: Tmax in female human at 150 mg, po
CONDITIONS_USED: in vivo
MEASUREMENT_KIND: Tmax (h)
Express it in h; write the number only.

According to the records, this compound `c1ccc([C@H]2CN3CCSC3=N2)cc1` displays Tmax of 1.1

* * *

ASSAY_SUMMARY: in vivo
CONDITIONS_USED: dog, po, 10 mg/kg
Description: Cmax in fasted dog at 10 mg/kg, po
MEASUREMENT_KIND: Cmax (ng/mL)
Express it in ng/mL; write the number only.

According to the records, this molecule `c1ccc([C@H]2CN3CCSC3=N2)cc1` displays Cmax of 3330

* * *

ASSAY_SUMMARY: Oral bioavailability in human at 150 mg
CONDITIONS_USED: in vivo
MEASUREMENT_KIND: bioavailability
Returns: string containing the number followed by the unit.

According to the records, this compound `c1ccc([C@H]2CN3CCSC3=N2)cc1` displays bioavailability of 62.5%

* * *

ASSAY_SUMMARY: AUC in human at 150 mg, po
CONDITIONS_USED: plasma
MEASUREMENT_KIND: AUC (ng·h/mL)
Express it in ng·h/mL; write the number only.

According to the records, this molecule `c1ccc([C@H]2CN3CCSC3=N2)cc1` displays AUC of 3070

* * *

ASSAY_SUMMARY: in vivo
CONDITIONS_USED: dog, po, 10 mg/kg
Description: Cmax in fed dog at 10 mg/kg, po
MEASUREMENT_KIND: Cmax (ng/mL)
Express it in ng/mL; write the number only.

According to the records, this compound `c1ccc([C@H]2CN3CCSC3=N2)cc1` displays Cmax of 1980

* * *

ASSAY_SUMMARY: in vivo
CONDITIONS_USED: dog, po, 10 mg/kg
Description: Tmax in fasted dog at 10 mg/kg, po
MEASUREMENT_KIND: Tmax (h)
Express it in h; write the number only.

According to the records, this compound c1ccc([C@H]2CN3CCSC3=N2)cc1 [LEVAMISOLE] displays Tmax of 1.8

* * *

ASSAY_SUMMARY: in vivo
CONDITIONS_USED: dog, po, 10 mg/kg
Description: Oral bioavailability in fasted dog at 10 mg/kg
MEASUREMENT_KIND: bioavailability

According to the records, this molecule `c1ccc([C@H]2CN3CCSC3=N2)cc1` displays bioavailability of 64%

* * *

ASSAY_SUMMARY: Plasma clearance in female human at 150 mg, po
MEASUREMENT_KIND: CL/F (mL/min/kg)
Express it in mL/min/kg; write the number only.

According to the records, this molecule c1ccc([C@H]2CN3CCSC3=N2)cc1 [LEVAMISOLE] displays CL/F of 7.56

* * *

ASSAY_SUMMARY: in vivo
CONDITIONS_USED: dog, po, 10 mg/kg
Description: Elimination half life in fasted dog at 10 mg/kg, po
MEASUREMENT_KIND: half-life
Returns: string containing the number followed by the unit.

According to the records, this compound `c1ccc([C@H]2CN3CCSC3=N2)cc1` displays half-life of 1.3 h

* * *

ASSAY_SUMMARY: AUC in male human at 150 mg, po
CONDITIONS_USED: plasma
MEASUREMENT_KIND: AUC (ng·h/mL)
Express it in ng·h/mL; write the number only.

According to the records, this molecule `c1ccc([C@H]2CN3CCSC3=N2)cc1` displays AUC of 3070

* * *

ASSAY_SUMMARY: Renal excretion in human at 150 mg, po
CONDITIONS_USED: urine
MEASUREMENT_KIND: dose excreted
Returns: string containing the number followed by the unit.

According to the records, this compound `c1ccc([C@H]2CN3CCSC3=N2)cc1` displays dose excreted of 3%
